Biological target: FAAH (Rattus norvegicus)
Construct: Preparation of Rat Brain Membranes Preparations (FAAH Enzyme Solution); from tissue; host or cells: rat cerebrum (brain membrane preparation)
Sequence (P97612 whole entry): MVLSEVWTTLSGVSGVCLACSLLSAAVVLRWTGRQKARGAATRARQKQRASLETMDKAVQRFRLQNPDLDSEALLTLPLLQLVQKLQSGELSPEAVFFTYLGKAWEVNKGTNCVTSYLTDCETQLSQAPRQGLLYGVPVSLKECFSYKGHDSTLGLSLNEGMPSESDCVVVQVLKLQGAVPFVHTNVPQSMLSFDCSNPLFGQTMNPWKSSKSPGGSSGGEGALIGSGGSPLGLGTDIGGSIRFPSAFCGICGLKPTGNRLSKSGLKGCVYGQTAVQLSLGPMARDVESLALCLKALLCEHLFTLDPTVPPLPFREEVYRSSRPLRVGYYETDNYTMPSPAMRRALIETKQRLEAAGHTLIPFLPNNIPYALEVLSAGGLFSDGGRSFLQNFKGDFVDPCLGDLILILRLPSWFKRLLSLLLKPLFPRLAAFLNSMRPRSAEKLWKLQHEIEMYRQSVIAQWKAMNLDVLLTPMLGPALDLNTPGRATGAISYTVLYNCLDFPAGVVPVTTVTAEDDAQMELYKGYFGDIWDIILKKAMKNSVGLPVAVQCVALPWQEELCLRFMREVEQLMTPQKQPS
Assay: Determination of FAAH inhibitory activity in rat (rat brain membrane preparations, [3H]-anandamide hydrolysis)
Format: biochemical
Conditions: rat brain membrane preparations; 100 nM test substance; read-out: FAAH Inhibition, Inhibition Rate at 100 nM
readout_name: inhibition at 0.1 µM (%)
Write the number in % without appending the unit.

Worked examples follow.
# smiles_entry, inhibition at 0.1 µM, %
rows = [
    ("CCOc1cc(F)cc(-c2ncc3c(n2)n(C)c(=O)n3C(=O)N2CCCC2)c1", 102),
    ("COc1ccc(-c2ncc3c(n2)n(C(=O)N2CCCC2)c(=O)n3C)cc1", 91),
]

Entry under test: "COc1cccc(-c2ncc3c(n2)n(C)c(=O)n3C(=O)N2CCN(CCC3CCCCC3)CC2)c1" . Its inhibition at 0.1 µM was 100

Entry under test: "Cn1c(=O)n(C(=O)N2CCCC2)c2nc(Cc3cccc(F)c3)ncc21" . Its inhibition at 0.1 µM was 86

Entry under test: "CCOc1cccc(C2CN(C(=O)n3c(=O)n(C)c4nc(CCCOC)ncc43)C2)c1" . Its inhibition at 0.1 µM was 92

Entry under test: "CN(C)C(=O)n1c(=O)n(C)c2cnc(CCc3ccc(C(F)(F)F)cc3)nc21" . Its inhibition at 0.1 µM was 88

Entry under test: "COc1cccc(/C=C/c2ncc3c(n2)n(C(=O)N2CCCC2)c(=O)n3C)c1" . Its inhibition at 0.1 µM was 97

Entry under test: "CCOc1ccc(-c2ncc3c(n2)n(C(=O)N2CCC2)c(=O)n3C)cc1" . Its inhibition at 0.1 µM was 72

Entry under test: "COc1cccc(-c2ncc3c(n2)n(C)c(=O)n3C(=O)N2CCN(c3ccccc3)CC2)c1" . Its inhibition at 0.1 µM was 99

Entry under test: "Cn1c(=O)n(C(=O)N2CCC2)c2cnc(Cc3ccccc3Cl)nc21" . Its inhibition at 0.1 µM was 82

Entry under test: "COc1cccc(-c2ncc3c(n2)n(C)c(=O)n3C(=O)N2CCC(COc3ccccc3)CC2)c1" . Its inhibition at 0.1 µM was 102

Entry under test: "CN(C)C(=O)n1c(=O)n(C)c2nc(-c3cccnc3)ncc21" . Its inhibition at 0.1 µM was 100

Entry under test: "Cn1c(=O)n(C(=O)N2CCC2)c2cnc(Cc3cccc(C(F)(F)F)c3)nc21" . Its inhibition at 0.1 µM was 96

Entry under test: "COc1cccc(-c2ncc3c(n2)n(C)c(=O)n3C(=O)N2CC[C@H](F)C2)c1" . Its inhibition at 0.1 µM was 100

Entry under test: "COc1cccc(Cc2ncc3c(n2)n(C)c(=O)n3C(=O)N2CCCC2)c1" . Its inhibition at 0.1 µM was 100

Entry under test: "COCc1ncc2c(n1)n(C)c(=O)n2C(=O)N1CC[C@H](Oc2cccc(F)c2)C1" . Its inhibition at 0.1 µM was 104

Entry under test: "CCc1ccc(CCc2ncc3c(n2)n(C(=O)N2CCC2)c(=O)n3C)cc1" . Its inhibition at 0.1 µM was 99
